biological target: Aspartyl aminopeptidase (Plasmodium falciparum (isolate 3D7)); test: PfM18AAP inhibition in parasite lysate, late-stage follow-up, cell lysate, fluorescence, malaria cell lysate, powder samples (AID 492975); conditions: P. falciparum lysate, H-Glu-NHMec fluorogenic substrate; at 5 µM
Calls of active or inactive are those of the source.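 Rule for the calls: active = inhibition above 50% of the malaria lysate aminopeptidase activity; inactive = inhibition of 50% or less.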
Assign a class; possible classes are active, inactive

Compound	Label Class
COC(=O)CN(n1cnnc1)S(=O)(=O)c1ccc(C)cc1	inactive
COc1cccc(-c2cc(C(=O)Nn3cnnc3)c3ccccc3n2)c1	inactive
CN1CCc2cccc3c2[C@@H]1Cc1ccc(O)c(O)c1-3	active
CC(C)n1c(SCC(=O)Nc2nncs2)nnc1-c1ccco1	inactive
O=[N+]([O-])c1cc([N+](=O)[O-])c2cccnc2c1Oc1ccccc1O	active

Write down the call the test reported for this compound. Item: CCC(C)c1ccc(O)c(N)c1 (stereo unspecified)
active

How was Cc1nc2ccccn2c1C(=O)NNC(=O)Nc1ccccc1 classified in this test?
active

###

biological target: Aspartyl aminopeptidase (Plasmodium falciparum (isolate 3D7)) (UniProt Q8I2J3); experiment: PfM18AAP inhibition in parasite lysate, late-stage follow-up, cell lysate, fluorescence, malaria cell lysate, powder samples (AID 492975); settings: P. falciparum lysate, H-Glu-NHMec fluorogenic substrate; at 5 µM
Sequence (Q8I2J3 whole entry, looked up): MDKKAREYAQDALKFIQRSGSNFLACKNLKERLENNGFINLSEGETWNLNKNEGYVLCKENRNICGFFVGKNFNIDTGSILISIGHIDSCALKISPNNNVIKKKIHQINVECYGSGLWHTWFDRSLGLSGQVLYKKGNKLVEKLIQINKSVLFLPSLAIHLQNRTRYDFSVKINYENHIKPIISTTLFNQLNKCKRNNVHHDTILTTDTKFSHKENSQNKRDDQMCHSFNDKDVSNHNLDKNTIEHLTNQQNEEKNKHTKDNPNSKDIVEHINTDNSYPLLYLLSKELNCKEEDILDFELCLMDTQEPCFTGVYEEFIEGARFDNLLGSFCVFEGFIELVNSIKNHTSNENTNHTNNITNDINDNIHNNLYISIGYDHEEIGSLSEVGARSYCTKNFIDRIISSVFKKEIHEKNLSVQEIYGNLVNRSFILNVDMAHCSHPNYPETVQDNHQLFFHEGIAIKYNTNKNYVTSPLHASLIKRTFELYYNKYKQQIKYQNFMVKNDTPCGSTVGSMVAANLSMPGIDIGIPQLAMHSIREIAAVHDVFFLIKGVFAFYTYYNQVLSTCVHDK
Calls of active or inactive are those of the source.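 How the source made its calls: active means inhibition above 50% of the malaria lysate aminopeptidase activity; inactive means inhibition of 50% or less.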
Response enum: active, inactive

Check out these entries, answers already filled in.
Nc1nncn1C(=O)CCCOc1ccc(Cl)cc1Cl inactive
Cc1ccc(Cl)cc1NC(=S)Nn1cnnc1 inactive
CCc1ccccc1NC(=S)Nn1cnnc1 inactive
Oc1ccc(-c2cn3ccccc3n2)cc1O active
Cc1c(Cl)cccc1NC(=O)Nn1cnnc1 inactive

// param item: O=C(Nn1cnnc1)c1csc2ccccc12 ; yields the recorded call
inactive

What is the recorded call for this molecule in the test? O=c1[nH]c(=S)[nH]c(O)c1/C=C1\C=c2ccccc2=N1
inactive

Call for entry Cc1cccc(NC(=S)Nn2cnnc2)c1C :
inactive

Recorded test outcome, item O=C(O)CSc1ncn[nH]1
active

Please indicate how the test categorized O=C(Nc1ccc(Br)cc1Cl)Nn1cnnc1 .
inactive

Each molecule tested received a call. Report the one for Oc1cc(O)c2c(c1)O[C@H](c1ccc(O)c(O)c1)[C@H](O)C2 .
active

In this assay, the call recorded for CCN(CC)S(=O)(=O)c1ccc(C(=O)Nn2cnnc2)cc1 was what?
inactive

Lab log entry: Cc1cc(=O)[nH]c(SCC(=O)c2ccc(O)c(O)c2)n1 — outcome as called in the assay?
active

###

target: Aspartyl aminopeptidase (Plasmodium falciparum (isolate 3D7)); experiment: PfM18AAP inhibition in parasite lysate, late-stage follow-up, cell lysate, fluorescence, malaria cell lysate, powder samples (AID 492975); conditions: P. falciparum lysate, H-Glu-NHMec fluorogenic substrate; at 5 µM; active compounds read high
Listed below: inhibition values for each entry.
Answer format: numeric, % implied, no suffix.

Answered examples (2):
COc1cc(Br)cc(/C=N/c2ncn[nH]2)c1O 0
COc1ccc(NC(=O)NNC(=O)CCc2ccc(O)c(O)c2)cc1OC 86

Let's switch to this compound now.
response.value for CC1=NNC(=O)/C1=C\c1cn(-c2ccccc2)nc1-c1ccc(F)cc1 (field: inhibition) = 68

###

Listing of recorded inhibition by entry.
molecular target: Aspartyl aminopeptidase (Plasmodium falciparum (isolate 3D7)) (UniProt Q8I2J3); test: PfM18AAP inhibition in parasite lysate, late-stage follow-up, cell lysate, fluorescence, malaria cell lysate, powder samples (AID 492975); conditions: P. falciparum lysate, H-Glu-NHMec fluorogenic substrate; at 5 µM; active compounds read high
Your answer should be a plain number; it is taken to be in %.

Molecule	inhibition (%)
O=C(CSc1nn(-c2ccccc2)c(=S)s1)Nn1cnnc1	9
OC(Cn1cnnc1)c1ccccc1 (stereo unspecified)	12
Cc1ccc([N+](=O)[O-])cc1-c1[nH]c(-c2ccc(O)c(O)c2)nc1-c1ccccc1	92
O=C(O)c1ccc(O)c(O)c1	94
COC(=O)CN(n1cnnc1)S(=O)(=O)c1ccccc1	0

Now for another entry.
molecule O=C(CSc1ncn[nH]1)Nc1nc(-c2ccccc2)ns1 , inhibition observed: 12
